Target: UniProt:O75469
Sequence (O75469 whole entry): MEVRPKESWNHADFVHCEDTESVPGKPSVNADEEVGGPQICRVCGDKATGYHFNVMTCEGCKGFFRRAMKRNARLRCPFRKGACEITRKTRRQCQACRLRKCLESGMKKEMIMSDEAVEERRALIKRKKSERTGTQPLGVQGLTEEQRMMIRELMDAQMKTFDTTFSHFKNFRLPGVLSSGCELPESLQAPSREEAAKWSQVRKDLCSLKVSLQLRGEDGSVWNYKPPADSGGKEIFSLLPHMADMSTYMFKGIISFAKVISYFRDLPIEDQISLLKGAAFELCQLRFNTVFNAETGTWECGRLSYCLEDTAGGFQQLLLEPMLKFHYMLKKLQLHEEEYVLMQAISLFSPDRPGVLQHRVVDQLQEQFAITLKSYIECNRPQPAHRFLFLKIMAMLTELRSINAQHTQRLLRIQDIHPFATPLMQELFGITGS
Experiment: Transactivation of human full-length PXR transfected in human HepG2 cells after 24 hrs by luciferase reporter gene assay
Assay type: cell-based
Conditions: human, hepg2, 24 h
Property Label: log10 EC20 (log10 of the value in µM)

[[record]]
compound_smiles = "CC(C)[C@@H](NC(=O)NCc1ccccc1)C(=O)N1CC[C@](O)(c2ccc(Cl)cc2)C(C)(C)C1"
system = "UniProt:O75469"
property_label = "log10 EC20"
quantitative_result = 0.34

[[record]]
compound_smiles = "CC[C@@H](C)NC(=O)N[C@@H](C(=O)N1CC[C@](O)(c2ccc(Cl)cc2)C(C)(C)C1)C(C)C"
system = "UniProt:O75469"
property_label = "log10 EC20"
quantitative_result = 0.72

[[record]]
compound_smiles = "CC(C)[C@@H](NC(=O)NC1CCCC1)C(=O)N1CC[C@](O)(c2ccc(Cl)cc2)C(C)(C)C1"
system = "UniProt:O75469"
property_label = "log10 EC20"
quantitative_result = 0.85

[[record]]
compound_smiles = "CC(C)[C@@H](NC(=O)N1CCCC1)C(=O)N1CC[C@](O)(c2ccc(Cl)cc2)C(C)(C)C1"
system = "UniProt:O75469"
property_label = "log10 EC20"
quantitative_result = -0.10

[[record]]
compound_smiles = "CC[C@H](C)NC(=O)N[C@@H](C(=O)N1CC[C@](O)(c2ccc(Cl)cc2)C(C)(C)C1)C(C)C"
system = "UniProt:O75469"
property_label = "log10 EC20"
quantitative_result = 0.94


====

List of remaining at 1 h, 0.5 µM values.
Assay: Metabolic stability in rat liver microsomes assessed as compound remaining at 0.5 uM after 60 mins by UV-LC/MS analysis
Type: ADME
Conditions: read-out: Stability
Property Label: remaining at 1 h, 0.5 µM (%)

[[record]]
compound_smiles = "CC(C)[C@@H](NC(=O)CCC(C)(C)O)C(=O)N1CC[C@](O)(c2ccc(Cl)cc2)C(C)(C)C1"
quantitative_result = 35

[[record]]
compound_smiles = "CC(C)[C@@H](NC(=O)NCC(C)(C)O)C(=O)N1CC[C@](O)(c2ccc(Cl)cc2)C(C)(C)C1"
quantitative_result = 74

[[record]]
compound_smiles = "CC(C)[C@@H](NC(=O)NC[C@@H](C)O)C(=O)N1CC[C@](O)(c2ccc(Cl)cc2)C(C)(C)C1"
quantitative_result = 78

[[record]]
compound_smiles = "CC(C)[C@@H](NC(=O)NC[C@H](C)O)C(=O)N1CC[C@](O)(c2ccc(Cl)cc2)C(C)(C)C1"
quantitative_result = 79


====

List of pIC50 values.
Target: C-C chemokine receptor type 1 (Homo sapiens)
Assay: Displacement of [125I]MIP-1alpha from CCR1 in human THP1 cells
Type: cell-based, THP-1
pIC50: −log10 of the molar value.
Property Label: pIC50

[[record]]
compound_smiles = "CC(C)[C@@H](NC(=O)C[C@H](C)O)C(=O)N1CC[C@](O)(c2ccc(Cl)cc2)C(C)(C)C1"
system = "C-C chemokine receptor type 1 (Homo sapiens)"
quantitative_result = 7.96

[[record]]
compound_smiles = "CC(C)[C@@H](NC(=O)N1CCCC1)C(=O)N1CC[C@](O)(c2ccc(Cl)cc2)C(C)(C)C1"
system = "C-C chemokine receptor type 1 (Homo sapiens)"
quantitative_result = 8.05

[[record]]
compound_smiles = "CC(C)[C@@H](NC(=O)N[C@H]1CC[C@@H](O)C1)C(=O)N1CC[C@](O)(c2ccc(Cl)cc2)C(C)(C)C1"
system = "C-C chemokine receptor type 1 (Homo sapiens)"
quantitative_result = 8.52

[[record]]
compound_smiles = "CC[C@H](C)NC(=O)N[C@@H](C(=O)N1CC[C@](O)(c2ccc(Cl)cc2)C(C)(C)C1)C(C)C"
system = "C-C chemokine receptor type 1 (Homo sapiens)"
quantitative_result = 8.70

[[record]]
compound_smiles = "CC(C)[C@@H](NC(=O)N[C@@H]1CC[C@@H](O)C1)C(=O)N1CC[C@](O)(c2ccc(Cl)cc2)C(C)(C)C1"
system = "C-C chemokine receptor type 1 (Homo sapiens)"
quantitative_result = 8.40

[[record]]
compound_smiles = "CC(C)[C@@H](NC(=O)N[C@H]1CC[C@H](O)C1)C(=O)N1CC[C@](O)(c2ccc(Cl)cc2)C(C)(C)C1"
system = "C-C chemokine receptor type 1 (Homo sapiens)"
quantitative_result = 8.52

[[record]]
compound_smiles = "CC(C)[C@@H](NC(=O)NCc1ccccc1)C(=O)N1CC[C@](O)(c2ccc(Cl)cc2)C(C)(C)C1"
system = "C-C chemokine receptor type 1 (Homo sapiens)"
quantitative_result = 9.00

[[record]]
compound_smiles = "CC(C)[C@@H](NC(=O)NC[C@H](C)O)C(=O)N1CC[C@](O)(c2ccc(Cl)cc2)C(C)(C)C1"
system = "C-C chemokine receptor type 1 (Homo sapiens)"
quantitative_result = 8.70


====

Experiment: Metabolic stability in mouse liver microsomes assessed as compound remaining at 0.5 uM after 60 mins by UV-LC/MS analysis
Assay type: ADME
Conditions: read-out: Stability
Property Label: remaining at 1 h, 0.5 µM

[[record]]
compound_smiles = "CC(C)[C@@H](NC(=O)CCC(C)(C)O)C(=O)N1CC[C@](O)(c2ccc(Cl)cc2)C(C)(C)C1"
result = "74%"

[[record]]
compound_smiles = "CC(C)[C@@H](NC(=O)NCC(C)(C)O)C(=O)N1CC[C@](O)(c2ccc(Cl)cc2)C(C)(C)C1"
result = "86%"

[[record]]
compound_smiles = "CC(C)[C@@H](NC(=O)NC[C@H](C)O)C(=O)N1CC[C@](O)(c2ccc(Cl)cc2)C(C)(C)C1"
result = "95%"

[[record]]
compound_smiles = "CC(C)[C@@H](NC(=O)NC[C@@H](C)O)C(=O)N1CC[C@](O)(c2ccc(Cl)cc2)C(C)(C)C1"
result = "86%"


====

Experiment: Bioavailability in mouse at 5 mg/kg
Type: ADME, organism-based
Conditions: in vivo
Property Label: bioavailability

[[record]]
compound_smiles = "CC(C)[C@@H](NC(=O)NCC(C)(C)O)C(=O)N1CC[C@](O)(c2ccc(Cl)cc2)C(C)(C)C1"
result = "79%"


====

Experiment: Metabolic stability in mouse liver microsomes assessed as compound remaining at 3 uM after 60 mins by UV-LC/MS analysis
Type: ADME
Conditions: read-out: Stability
Quick rule for you: remaining at 1 h, 3 µM under 90% gets label 1, anything else gets label 0.

[[record]]
compound_smiles = "CC(C)[C@@H](NC(=O)C[C@@H](C)O)C(=O)N1CC[C@](O)(c2ccc(Cl)cc2)C(C)(C)C1"
class = "label 1"

[[record]]
compound_smiles = "CC(C)[C@@H](NC(=O)CC(C)(C)O)C(=O)N1CC[C@](O)(c2ccc(Cl)cc2)C(C)(C)C1"
class = "label 0"

[[record]]
compound_smiles = "CC[C@@H](C)NC(=O)N[C@@H](C(=O)N1CC[C@](O)(c2ccc(Cl)cc2)C(C)(C)C1)C(C)C"
class = "label 1"

[[record]]
compound_smiles = "CC(C)[C@@H](NC(=O)N[C@H]1CC[C@H](O)C1)C(=O)N1CC[C@](O)(c2ccc(Cl)cc2)C(C)(C)C1"
class = "label 0"

[[record]]
compound_smiles = "CC(C)[C@@H](NC(=O)N[C@@H]1CC[C@@H](O)C1)C(=O)N1CC[C@](O)(c2ccc(Cl)cc2)C(C)(C)C1"
class = "label 0"

[[record]]
compound_smiles = "CC(C)[C@@H](NC(=O)N[C@H]1CC[C@@H](O)C1)C(=O)N1CC[C@](O)(c2ccc(Cl)cc2)C(C)(C)C1"
class = "label 0"

[[record]]
compound_smiles = "CC(C)[C@@H](NC(=O)N[C@@H]1CC[C@H](O)C1)C(=O)N1CC[C@](O)(c2ccc(Cl)cc2)C(C)(C)C1"
class = "label 1"

[[record]]
compound_smiles = "CC(C)[C@@H](NC(=O)NCc1ccccc1)C(=O)N1CC[C@](O)(c2ccc(Cl)cc2)C(C)(C)C1"
class = "label 1"

[[record]]
compound_smiles = "CC(C)[C@@H](NC(=O)NC1CCCC1)C(=O)N1CC[C@](O)(c2ccc(Cl)cc2)C(C)(C)C1"
class = "label 1"

[[record]]
compound_smiles = "CC(C)[C@@H](NC(=O)N1CCCC1)C(=O)N1CC[C@](O)(c2ccc(Cl)cc2)C(C)(C)C1"
class = "label 1"

[[record]]
compound_smiles = "CC[C@H](C)NC(=O)N[C@@H](C(=O)N1CC[C@](O)(c2ccc(Cl)cc2)C(C)(C)C1)C(C)C"
class = "label 1"


====

Target: C-C chemokine receptor type 1 (Homo sapiens, UniProt P32246)
Sequence (P32246 whole entry): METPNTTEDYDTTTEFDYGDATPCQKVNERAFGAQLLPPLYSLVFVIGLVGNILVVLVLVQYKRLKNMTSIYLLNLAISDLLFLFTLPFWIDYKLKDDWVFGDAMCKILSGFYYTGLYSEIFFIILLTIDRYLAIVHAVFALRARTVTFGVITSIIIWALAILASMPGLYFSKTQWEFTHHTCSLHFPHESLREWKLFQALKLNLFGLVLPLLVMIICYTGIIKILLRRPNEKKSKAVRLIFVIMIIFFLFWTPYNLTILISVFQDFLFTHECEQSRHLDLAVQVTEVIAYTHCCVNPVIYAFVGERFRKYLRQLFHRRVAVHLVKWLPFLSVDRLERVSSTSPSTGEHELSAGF
Assay: Displacement of [125I]MIP-1alpha from CCR1 in human THP1 cells
Assay type: cell-based, THP-1
pIC50: −log10 of the molar value.
Property Label: pIC50

[[record]]
compound_smiles = "CC(C)[C@@H](NC(=O)NCC(C)(C)O)C(=O)N1CC[C@](O)(c2ccc(Cl)cc2)C(C)(C)C1"
quantitative_result = 9.00

[[record]]
compound_smiles = "CC(C)[C@@H](NC(=O)C[C@@H](C)O)C(=O)N1CC[C@](O)(c2ccc(Cl)cc2)C(C)(C)C1"
quantitative_result = 8.70

[[record]]
compound_smiles = "CC(C)[C@@H](NC(=O)Nc1ccccc1)C(=O)N1CC[C@](O)(c2ccc(Cl)cc2)C(C)(C)C1"
quantitative_result = 7.70

[[record]]
compound_smiles = "CC(C)[C@@H](NC(=O)NC1CCCC1)C(=O)N1CC[C@](O)(c2ccc(Cl)cc2)C(C)(C)C1"
quantitative_result = 8.70

[[record]]
compound_smiles = "CC(C)[C@@H](NC(=O)N[C@@H]1CC[C@H](O)C1)C(=O)N1CC[C@](O)(c2ccc(Cl)cc2)C(C)(C)C1"
quantitative_result = 8.70

